tested on: CCRF-CEM leukemia; test: NCI tumour cell line growth inhibition, 48 h
TGI overview

>>> reading("Oc1c(Cl)cc2cc1-c1cc(cc(Cl)c1O)CCc1c(cc(Cl)c(O)c1Cl)-c1cc(Cl)c(c(Cl)c1O)/C=C\\2")
"> 50 µM"
>>> reading("COc1ccc2c(c1O)[C@@]13CCCC=C1[C@@H](C2)[N+](C)(C)CC3")
"> 100 µM"
>>> reading("Fc1ccc2c(c1)C1=C(CCC2)C(c2ccc(Cl)cc2)NC(=S)N1 (stereo not given)")
"> 100 µM"
>>> reading("Nc1ccc2c(=O)cc(-c3ccc(Br)s3)[nH]c2n1")
"> 100 µM"

Ask | Look up TGI: CC(C)OP(=O)(OC(C)C)C(C(C)C)N(C)C(N)=NC#N (stereo not given)
Reply | > 100 µM

Ask | Look up TGI: `N#C/C(=C/N1CCN(C(=O)c2ccco2)C1=S)C(=O)Nc1ccc(Cl)cc1`
Reply | > 50 µM
